- Tgt: human PAD4 (Homo sapiens)
- Construct: human PAD4 (NM_012387), A2P663, was PCR amplified; His-SUMO (N, cleaved yes)
- Sequence (Q9UM07 2-663): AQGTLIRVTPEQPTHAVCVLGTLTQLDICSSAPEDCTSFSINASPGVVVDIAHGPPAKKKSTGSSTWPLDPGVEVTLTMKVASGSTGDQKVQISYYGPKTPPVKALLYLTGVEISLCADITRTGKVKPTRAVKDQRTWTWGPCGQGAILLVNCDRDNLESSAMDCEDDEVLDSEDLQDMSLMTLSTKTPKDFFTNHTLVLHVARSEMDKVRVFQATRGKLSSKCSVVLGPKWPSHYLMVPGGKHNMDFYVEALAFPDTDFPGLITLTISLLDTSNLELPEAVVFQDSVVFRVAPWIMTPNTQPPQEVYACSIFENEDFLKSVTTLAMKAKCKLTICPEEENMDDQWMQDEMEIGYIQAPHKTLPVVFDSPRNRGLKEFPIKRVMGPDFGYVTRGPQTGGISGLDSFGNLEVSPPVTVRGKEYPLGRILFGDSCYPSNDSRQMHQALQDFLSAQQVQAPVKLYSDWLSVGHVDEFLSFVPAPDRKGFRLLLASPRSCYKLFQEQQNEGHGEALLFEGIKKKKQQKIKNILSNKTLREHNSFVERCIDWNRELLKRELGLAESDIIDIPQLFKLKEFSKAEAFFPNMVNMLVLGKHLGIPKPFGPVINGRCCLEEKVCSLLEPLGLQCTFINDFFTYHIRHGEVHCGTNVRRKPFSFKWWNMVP
- Experiment summary: In vitro PAD4 BAEE biochemical assay
- Conditions: human PAD4, BAEE substrate; 5 nM PAD4, 2 mM calcium chloride, 3 mM BAEE; geometric mean of multiple experiments
Note to self: IC50 under 200 nM means yes, ties and anything higher get no.

Compound	Label
COc1cc(C(=O)N2C[C@H]3CCC[C@@H]2[C@@H]3N)cc2nc(-c3cc4ccc(N(C(F)F)S(C)(=O)=O)nc4n3CC3CC3)c(C)n12 [Example 349]	no

Take the compound CCn1cc(C(=O)N[C@H](C)c2ccc3cc(-c4nc5cc(C(=O)N6[C@H]7CC[C@@H]6[C@H](N)C7)cc(OC)n5c4C)n(CC4CC4)c3n2)cn1 and say whether its IC50 is less than 200 nM.
yes

Entry to check: COc1cc(C(=O)N2[C@H]3CC[C@@H]2[C@H](N)C3)cc2nc(-c3cc4ccc(N5C[C@@H](C)OCS5(=O)=O)nc4n3CC3CC3)c(C)n12
no

====

- Tgt: human PAD4 (Homo sapiens)
- Construct: human PAD4 (NM_012387), A2P663, was PCR amplified; His-SUMO (N, cleaved yes)
- Experiment summary: In vitro PAD4 BAEE biochemical assay
- Conditions: human PAD4, BAEE substrate; 5 nM PAD4, 2 mM calcium chloride, 3 mM BAEE; geometric mean of multiple experiments
- Description: The PCR product was ligated into linearized pET-SUMO vector (Invitrogen, Carlsbad, CA), which is part of the Champion™ pET SUMO Protein Expression System. […] The enzymatic activity of human PAD4 was monitored in a biochemical assay in the presence or absence of compounds using the small peptidyl arginine mimic BAEE (Na-Benzoyl-L-arginine ethyl ester hydrochloride) as substrate. […] Levels of ammonia were monitored by using an amine coupling reaction and were indicative of PAD4 enzymatic activity. […]
pIC50: −log10 of the molar value.
Label Condition met when pIC50 >= 7; otherwise Condition not met.

// below: answered compounds
Compound	Label
COc1cc(C(=O)N2[C@H]3CC[C@@H]2[C@H](N)C3)cc2nc(-c3cc4ccc([C@@H](C)NC(=O)C5CC56CC6)nc4n3CC3CC3)c(C)n12 (stereo partly drawn) [Example 69]	Condition met
COc1cc(C(=O)N2[C@H]3CC[C@@H]2[C@H](N)C3)cc2nc(-c3cc4ccc(N5[C@@H](C)COCS5(=O)=O)nc4n3CC3CC3)c(C)n12 [Example 439]	Condition met
COc1cc(C(=O)N2C[C@H]3C[C@H](C)[C@@H]2[C@@H]3N)cc2nc(-c3cc4ccc([C@@H](C)NC(=O)C(C)(C)C)nc4n3CC3CC3)c(C)n12 [Example 167]	Condition not met

Textbook exercise: given the entry COc1cc(C(=O)N2[C@@H]3CCC[C@H]2[C@@H](N)C3)cc2nc(-c3cc4ccc(N(C(F)F)S(C)(=O)=O)nc4n3CC3CC3)c(C)n12 [Example 331] , state whether its pIC50 is greater than or equal to 7.
Condition not met

====

Below, each of the compounds is paired with its reported pIC50 value.
- Tgt: human PAD4 (Homo sapiens)
- Construct: human PAD4 (NM_012387), A2P663, was PCR amplified; His-SUMO (N, cleaved yes)
- Experiment summary: In vitro PAD4 BAEE biochemical assay
- Conditions: human PAD4, BAEE substrate; 5 nM PAD4, 2 mM calcium chloride, 3 mM BAEE; geometric mean of multiple experiments
- Text: The PCR product was ligated into linearized pET-SUMO vector (Invitrogen, Carlsbad, CA), which is part of the Champion™ pET SUMO Protein Expression System. […] The enzymatic activity of human PAD4 was monitored in a biochemical assay in the presence or absence of compounds using the small peptidyl arginine mimic BAEE (Na-Benzoyl-L-arginine ethyl ester hydrochloride) as substrate. […] Levels of ammonia were monitored by using an amine coupling reaction and were indicative of PAD4 enzymatic activity. […]
Scale note: pIC50 = -log10(concentration in M).

Below, each entry is followed by its recorded pIC50 result.
Compound	Experimental result
COc1cc(C(=O)N2[C@H]3CC(C)[C@@H]2[C@H](N)C3)cc2nc(-c3cc4ccc(N(C(F)F)S(C)(=O)=O)nc4n3CC3CC3)c(C)n12 (stereo partly drawn)	5.19
COc1cc(C(=O)N2[C@H]3CC[C@@H]2[C@H](N)C3)cc2nc(-c3cc4ccc(N(C)S(C)(=O)=O)nc4n3CC3CC3C)c(C)n12 (stereo partly drawn)	7.12

Pending compound:
Please look up its pIC50: COc1cc(C(=O)N2[C@H]3CC[C@@H]2[C@H](N)C3)cc2nc(-c3cc4ccc([C@@H](C)NC(=O)c5ccncc5)nc4n3CC3CC3)c(C)n12
7.46

The reported measurements were obtained from patent US12240862B2.
